- SYSTEM_NAME: Aurora-A kinase (Homo sapiens, UniProt O14965)
- Construct: purchased Invitrogen (Carlsbad, CA, USA)
- Sequence (O14965 1-403): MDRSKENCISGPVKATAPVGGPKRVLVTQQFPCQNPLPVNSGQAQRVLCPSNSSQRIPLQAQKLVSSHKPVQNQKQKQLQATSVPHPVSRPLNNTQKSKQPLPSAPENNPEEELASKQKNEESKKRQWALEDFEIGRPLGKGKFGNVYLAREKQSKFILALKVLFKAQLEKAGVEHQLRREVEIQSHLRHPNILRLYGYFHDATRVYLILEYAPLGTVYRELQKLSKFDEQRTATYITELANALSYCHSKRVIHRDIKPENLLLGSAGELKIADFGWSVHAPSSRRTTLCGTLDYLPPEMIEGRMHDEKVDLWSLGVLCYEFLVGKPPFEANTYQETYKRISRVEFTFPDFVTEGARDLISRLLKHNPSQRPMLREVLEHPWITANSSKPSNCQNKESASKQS
- PROTOCOL_SUMMARY: FRET-based Z'-LYTE kinase enzyme inhibition assay
- Type: biochemical
- EXPERIMENTAL_CONTEXT: 10 µM, duplicates, Z'-LYTE
Reported % Inhibition at 10 µM values follow for various molecules

[
  {
    "COMPOUND": "COc1ccc(CCCCCCc2ccc(OC)cc2)cc1",
    "OUTPUT_UNIT": "%",
    "% Inhibition at 10 µM": -1
  },
  {
    "COMPOUND": "COc1ccc(-c2oc3ccc(C)cc3c(=O)c2O)cc1",
    "OUTPUT_UNIT": "%",
    "% Inhibition at 10 µM": 20
  },
  {
    "COMPOUND": "O=C(Oc1ccc(Cl)cc1Cl)c1ccc([N+](=O)[O-])cc1",
    "OUTPUT_UNIT": "%",
    "% Inhibition at 10 µM": -30
  },
  {
    "COMPOUND": "COc1ccc2c(ccc[n+]2CC(=O)c2ccc(SC)cc2)c1",
    "OUTPUT_UNIT": "%",
    "% Inhibition at 10 µM": 14
  },
  {
    "COMPOUND": "COc1ccc(NC(=O)c2ccc(Cl)cc2Cl)cc1",
    "OUTPUT_UNIT": "%",
    "% Inhibition at 10 µM": -7
  },
  {
    "COMPOUND": "COc1ccc(OC(=O)c2ccc(Cl)cc2)cc1",
    "OUTPUT_UNIT": "%",
    "% Inhibition at 10 µM": 0
  }
]
